Let's look at some compounds and their measured MFC.
tested on: Cryptococcus gattii species complex; assay: Antifungal activity against Cryptococcus gattii L24/01 after 48 to 72 hrs by broth microdilution method; assay type: functional, Cryptococcus bacillisporus
Give your result in µM as a bare value.

Known results for compounds:
COMPOUND	ASSAYED SYSTEM	MFC, µM
C(=N\Nc1nc(-c2ccccc2)cs1)/C1CCCCC1	Cryptococcus gattii species complex	3.9
c1ccc(-c2csc(NN=C3CCCC3)n2)cc1	Cryptococcus gattii species complex	7.8
C[C@@H]1[C@H](O)[C@@H](C)/C=C/C=C/C=C/C=C/C=C/C=C/C=C/[C@H](O[C@@H]2O[C@H](C)[C@@H](O)[C@H](N)[C@@H]2O)C[C@@H]2O[C@](O)(C[C@@H](O)C[C@@H](O)[C@H](O)CC[C@@H](O)C[C@@H](O)CC(=O)O[C@H]1C)C[C@H](O)[C@H]2C(=O)O [AMPHOTERICIN B]	Cryptococcus gattii species complex	0.1
COc1ccc(-c2csc(N/N=C(\C)CCO)n2)cc1	Cryptococcus gattii species complex	3.9

If you can, please state the reported MFC value of COc1ccc(-c2csc(N/N=C/C3CCCCC3)n2)cc1 . 3.9

---

MFC values, listed per item
system: Cryptococcus neoformans; experiment: Antifungal activity against Cryptococcus neoformans 96806 after 48 to 72 hrs by broth microdilution method; format: functional
Answer in µM, number only, no unit symbol.

SMILES STRING	MFC / µM
COc1ccc(-c2csc(N/N=C/C3CCCCC3)n2)cc1	1.9
c1ccc(-c2csc(NN=C3CCCC3)n2)cc1	7.8

Which MFC value belongs to C[C@@H]1[C@H](O)[C@@H](C)/C=C/C=C/C=C/C=C/C=C/C=C/C=C/[C@H](O[C@@H]2O[C@H](C)[C@@H](O)[C@H](N)[C@@H]2O)C[C@@H]2O[C@](O)(C[C@@H](O)C[C@@H](O)[C@H](O)CC[C@@H](O)C[C@@H](O)CC(=O)O[C@H]1C)C[C@H](O)[C@H]2C(=O)O ? 0.45

MFC for COc1ccc(-c2csc(N/N=C(\C)CCO)n2)cc1 ? 3.9

Recorded MFC of C(=N\Nc1nc(-c2ccccc2)cs1)/C1CCCCC1 , please. 3.9

---

system: Cryptococcus gattii species complex; assay: Ratio of compound MIC for Cryptococcus gattii ICB181 in presence of fluconazole to compound MIC for Cryptococcus gattii ICB181 in absence of fluconazole by checkerboard microtiter test; assay type: functional, Cryptococcus bacillisporus
ASSAY ENDPOINT: fractional inhibitory concentration index (FICI)
Just the number, please.

>>> print(df.to_string())
                        smiles_string  endpoint_result
0      c1ccc(-c2csc(NN=C3CCCC3)n2)cc1             4.58
1  C(=N\Nc1nc(-c2ccccc2)cs1)/C1CCCCC1             2.58

So what's the measured fractional inhibitory concentration index (FICI) for this one? COc1ccc(-c2csc(N/N=C/C3CCCCC3)n2)cc1 4.46

Would you mind telling me what fractional inhibitory concentration index (FICI) value was observed for COc1ccc(-c2csc(N/N=C(\C)CCO)n2)cc1 ? 1.99

---

Listed next: entries and their corresponding MIC.
system: Cryptococcus neoformans; experiment: Antifungal activity against Cryptococcus neoformans 96806 after 48 to 72 hrs by broth microdilution method; type: functional
Enter the number, and then the unit.

Past entries and their recorded results:
SMILES STRING	ENDPOINT RESULT
OC(Cn1cncn1)(Cn1cncn1)c1ccc(F)cc1F	31.2 µM
C[C@@H]1[C@H](O)[C@@H](C)/C=C/C=C/C=C/C=C/C=C/C=C/C=C/[C@H](O[C@@H]2O[C@H](C)[C@@H](O)[C@H](N)[C@@H]2O)C[C@@H]2O[C@](O)(C[C@@H](O)C[C@@H](O)[C@H](O)CC[C@@H](O)C[C@@H](O)CC(=O)O[C@H]1C)C[C@H](O)[C@H]2C(=O)O	0.09 µM
C(=N\Nc1nc(-c2ccccc2)cs1)/C1CCCCC1	1.9 µM
c1ccc(-c2csc(NN=C3CCCC3)n2)cc1	1.9 µM
COc1ccc(-c2csc(N/N=C/C3CCCCC3)n2)cc1	1.9 µM

Now for a further molecule.
Find the recorded MIC belonging to COc1ccc(-c2csc(N/N=C(\C)CCO)n2)cc1 and report it. 0.9 µM

---

test system: Cryptococcus gattii species complex; assay: Ratio of compound MIC for Cryptococcus gattii L28/02 in presence of fluconazole to compound MIC for Cryptococcus gattii L28/02 in absence of fluconazole by checkerboard microtiter test; assay type: functional, Cryptococcus bacillisporus
Parameter fractional inhibitory concentration index (FICI): see the listing below.
Lab note: record just the number, no unit beside it.

Record excerpt, results attached:
>>> df
                          smiles_string  endpoint_result
0  COc1ccc(-c2csc(N/N=C/C3CCCCC3)n2)cc1             4.38
1        c1ccc(-c2csc(NN=C3CCCC3)n2)cc1             4.22
2    COc1ccc(-c2csc(N/N=C(\C)CCO)n2)cc1             1.01

We now examine a further compound.
// returns reported fractional inhibitory concentration index (FICI) for input C(=N\Nc1nc(-c2ccccc2)cs1)/C1CCCCC1 2.47

---

tested on: Cryptococcus neoformans; test: Antifungal activity against Cryptococcus neoformans ATCC 28957 after 48 to 72 hrs by broth microdilution method; assay type: functional
ASSAY ENDPOINT: MFC
Output should be the measured figure followed by the unit it is expressed in.

Solved cases (3 shown):
SMILES STRING	ASSAY ENDPOINT	ENDPOINT RESULT
COc1ccc(-c2csc(N/N=C(\C)CCO)n2)cc1	MFC	3.9 µM
OC(Cn1cncn1)(Cn1cncn1)c1ccc(F)cc1F	MFC	62.5 µM
C(=N\Nc1nc(-c2ccccc2)cs1)/C1CCCCC1	MFC	7.8 µM

I'm curious: which MFC was measured for C[C@@H]1[C@H](O)[C@@H](C)/C=C/C=C/C=C/C=C/C=C/C=C/C=C/[C@H](O[C@@H]2O[C@H](C)[C@@H](O)[C@H](N)[C@@H]2O)C[C@@H]2O[C@](O)(C[C@@H](O)C[C@@H](O)[C@H](O)CC[C@@H](O)C[C@@H](O)CC(=O)O[C@H]1C)C[C@H](O)[C@H]2C(=O)O tested on Cryptococcus neoformans? 0.22 µM

Value wanted: MFC (Cryptococcus neoformans) of entry c1ccc(-c2csc(NN=C3CCCC3)n2)cc1 7.8 µM

Give recorded MFC with Cryptococcus neoformans for the following molecule: COc1ccc(-c2csc(N/N=C/C3CCCCC3)n2)cc1 3.9 µM

---

Quick reference for fractional inhibitory concentration index (FICI) among some compounds
system: Cryptococcus gattii species complex; test: Ratio of compound MIC for Cryptococcus gattii 1913ER in presence of fluconazole to compound MIC for Cryptococcus gattii 1913ER in absence of fluconazole by checkerboard microtiter test; type: functional, Cryptococcus bacillisporus
# respond with the number and nothing more

Some solved entries appear below for comparison.
                        smiles_string                       assayed_system  endpoint_result
0  COc1ccc(-c2csc(N/N=C(\C)CCO)n2)cc1  Cryptococcus gattii species complex             2.47
1      c1ccc(-c2csc(NN=C3CCCC3)n2)cc1  Cryptococcus gattii species complex             2.45
2  C(=N\Nc1nc(-c2ccccc2)cs1)/C1CCCCC1  Cryptococcus gattii species complex             2.09

Please turn your attention to the following entry.
Consider the compound shown here: COc1ccc(-c2csc(N/N=C/C3CCCCC3)n2)cc1 What is its recorded fractional inhibitory concentration index (FICI)? 2.46

---

fractional inhibitory concentration index (FICI) overview
tested on: Cryptococcus gattii species complex; assay: Ratio of compound MIC for Cryptococcus gattii 23/10993 in presence of fluconazole to compound MIC for Cryptococcus gattii 23/10993 in absence of fluconazole by checkerboard microtiter test; type: functional, Cryptococcus bacillisporus

Illustrative cases are given below, each with its answer.
In [3]: df
Out[3]:
                          smiles_string  endpoint_result
0    COc1ccc(-c2csc(N/N=C(\C)CCO)n2)cc1             2.28
1        c1ccc(-c2csc(NN=C3CCCC3)n2)cc1             4.23
2  COc1ccc(-c2csc(N/N=C/C3CCCCC3)n2)cc1             2.46

Then there is this molecule:
Recorded fractional inhibitory concentration index (FICI) of C(=N\Nc1nc(-c2ccccc2)cs1)/C1CCCCC1 , please. 1.47

---

tested on: Cryptococcus gattii species complex; assay: Ratio of compound MIC for Cryptococcus gattii 135L/03 in presence of fluconazole to compound MIC for Cryptococcus gattii 135L/03 in absence of fluconazole by checkerboard microtiter test; type: functional, Cryptococcus bacillisporus
Catalogue of fractional inhibitory concentration index (FICI) values

Look over these answered cases.
>>> print(df.to_string())
                          smiles_string                       assayed_system  endpoint_result
0        c1ccc(-c2csc(NN=C3CCCC3)n2)cc1  Cryptococcus gattii species complex             2.45
1    COc1ccc(-c2csc(N/N=C(\C)CCO)n2)cc1  Cryptococcus gattii species complex             2.38
2  COc1ccc(-c2csc(N/N=C/C3CCCCC3)n2)cc1  Cryptococcus gattii species complex             2.71

Recorded fractional inhibitory concentration index (FICI) of C(=N\Nc1nc(-c2ccccc2)cs1)/C1CCCCC1 , please. 2.47
